# Test system: Aspergillus flavus
# Assay Method Text: Antifungal activity against Aspergillus flavus at 50 ug/mL incubated for 3 days by agar well diffusion method
# Type: functional
# Test Parameters: 72 h, read-out: IZ
Starred links: 1 amine or outer side, 2 acyl side, 3 side chain; linkers in the order of their positions; H or OH if unused. Residues, ends and D or L forms follow the SMILES beside them. *: point of attachment. NH(4-MeO-phenyl) = COc1ccc(N*)cc1; X1 = c1ccc2c(N3CCN(*)CC3)nsc2c1; NH(2-F-phenyl) = Fc1ccccc1N*; CO = O=C([*:1])[*:2]; X6 = Fc1cccc(N*)c1
What zone of inhibition at 50 µg/mL was measured for each of the following?
Write the number in mm without appending the unit.

[Q] Provide measured zone of inhibition at 50 µg/mL value, entry: CC(C)[C@H](NC(=O)CNC(=O)Nc1ccccc1F)C(=O)NCC(=O)N[C@H](C(=O)N1CCC[C@H]1C(=O)N1CCN(c2nsc3ccccc23)CC1)C(C)C ({NH(2-F-phenyl)-CO}-GVGVP-X1)
[A] 24

[Q] Provide measured zone of inhibition at 50 µg/mL value, entry: CC(C)[C@H](NC(=O)CNC(=O)[C@H](Cc1ccccc1)NC(=O)CNC(=O)Nc1cccc(F)c1)C(=O)N1CCC[C@H]1C(=O)N1CCN(c2nsc3ccccc23)CC1 ({X6-CO}-GFGVP-X1)
[A] 29

[Q] Provide measured zone of inhibition at 50 µg/mL value, entry: COC(=O)Nc1nc2ccccc2[nH]1
[A] 13

[Q] Provide measured zone of inhibition at 50 µg/mL value, entry: COc1ccc(NC(=O)NCC(=O)N[C@@H](Cc2ccccc2)C(=O)NCC(=O)N[C@H](C(=O)N2CCC[C@H]2C(=O)N2CCN(c3nsc4ccccc34)CC2)C(C)C)cc1 ({NH(4-MeO-phenyl)-CO}-GFGVP-X1)
[A] 28
